For each entry below, report its Protein ELISA value.
# experimental_target: cMet-Fc fusion protein (Homo sapiens, UniProt P08581)
# Sequence (P08581 25-307 limits assumed): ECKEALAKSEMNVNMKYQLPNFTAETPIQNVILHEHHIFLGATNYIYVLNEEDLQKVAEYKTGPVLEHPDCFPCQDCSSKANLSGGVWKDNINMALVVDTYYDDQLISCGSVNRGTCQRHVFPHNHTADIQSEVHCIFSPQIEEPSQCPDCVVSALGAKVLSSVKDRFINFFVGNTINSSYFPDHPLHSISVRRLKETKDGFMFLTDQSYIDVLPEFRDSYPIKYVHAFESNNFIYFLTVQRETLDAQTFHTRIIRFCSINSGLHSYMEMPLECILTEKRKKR
# Sequence (P08581 with tags, fused parts or gaps limits assumed): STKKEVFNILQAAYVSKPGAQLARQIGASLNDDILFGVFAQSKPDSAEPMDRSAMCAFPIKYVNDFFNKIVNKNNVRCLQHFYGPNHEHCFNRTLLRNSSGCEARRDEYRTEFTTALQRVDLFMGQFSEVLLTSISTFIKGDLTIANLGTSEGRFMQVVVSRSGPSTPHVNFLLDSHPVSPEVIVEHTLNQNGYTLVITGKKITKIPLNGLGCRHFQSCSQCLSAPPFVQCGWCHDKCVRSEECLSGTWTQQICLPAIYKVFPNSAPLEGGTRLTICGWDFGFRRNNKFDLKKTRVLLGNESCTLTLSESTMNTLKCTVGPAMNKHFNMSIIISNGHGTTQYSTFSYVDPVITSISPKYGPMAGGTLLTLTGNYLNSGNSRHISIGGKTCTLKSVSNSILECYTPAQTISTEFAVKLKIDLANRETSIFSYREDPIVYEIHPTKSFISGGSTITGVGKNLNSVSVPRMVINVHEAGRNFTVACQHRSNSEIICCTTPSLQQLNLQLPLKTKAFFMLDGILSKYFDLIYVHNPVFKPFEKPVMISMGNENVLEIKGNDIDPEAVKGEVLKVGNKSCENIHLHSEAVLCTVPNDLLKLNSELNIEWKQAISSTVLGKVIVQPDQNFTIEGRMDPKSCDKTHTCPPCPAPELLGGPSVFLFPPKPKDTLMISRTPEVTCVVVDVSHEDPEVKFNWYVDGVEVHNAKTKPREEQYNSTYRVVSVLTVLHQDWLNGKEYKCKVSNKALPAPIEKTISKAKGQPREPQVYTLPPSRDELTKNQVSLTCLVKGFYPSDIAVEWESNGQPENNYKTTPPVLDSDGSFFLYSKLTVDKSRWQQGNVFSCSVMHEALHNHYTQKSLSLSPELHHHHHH
# experiment: Protein phage ELISA: peptide-displaying phage binding to soluble cMet-Fc versus TRAIL-Fc
# cond: phage isolate; cMet-Fc vs. TRAIL-Fc
Entry rule: numbers only, all in fold over background.

Give me measured Protein ELISA, please, for this sequence: GSQQICDRKEYRFQACLSDAP (Synthetically generated cMet-binding peptide sequence) [SEQ ID NO: 371] 3.4

Give me measured Protein ELISA, please, for this sequence: AGTMYCLGPPTFICQQYGT (Synthetically generated cMet-binding peptide sequence) [SEQ ID NO: 084] 13.0

Give me measured Protein ELISA, please, for this sequence: AGTWHCAGPPWFTCYMDGT (Synthetically generated cMet-binding peptide sequence) [SEQ ID NO: 069] 9.0

Give me measured Protein ELISA, please, for this sequence: AQHVVTLTLIQMPFAFNFEPRM (Synthetically generated cMet-binding peptide sequence) [SEQ ID NO: 484] 3.1

Give me measured Protein ELISA, please, for this sequence: GDYRMCQISDMWGNYECSSDDP (Synthetically generated cMet-binding peptide sequence) [SEQ ID NO: 400] 6.1

Give me measured Protein ELISA, please, for this sequence: AGWSDCLGPPQFTCVHWGT (Synthetically generated cMet-binding peptide sequence) [SEQ ID NO: 083] 3.9

Give me measured Protein ELISA, please, for this sequence: AGEIFCVGPPTFTCMWTGT (Synthetically generated cMet-binding peptide sequence) [SEQ ID NO: 096] 9.7

Give me measured Protein ELISA, please, for this sequence: AGNYFCAGSPSFSCYFMGT (Synthetically generated cMet-binding peptide sequence) [SEQ ID NO: 054] 13.4

Give me measured Protein ELISA, please, for this sequence: GSLIFCPYGECMMYAP (Synthetically generated cMet-binding peptide sequence) [SEQ ID NO: 005] 3.5

Give me measured Protein ELISA, please, for this sequence: AQRDYLFYWNDGSYQPWQVFVG (Synthetically generated cMet-binding peptide sequence) [SEQ ID NO: 493] 5.5

Give me measured Protein ELISA, please, for this sequence: AQWNWDMGFMWTTDSAQVQPSM (Synthetically generated cMet-binding peptide sequence) [SEQ ID NO: 489] 3.0

Give me measured Protein ELISA, please, for this sequence: GSELFCFYHHQGYEGCDVLAP (Synthetically generated cMet-binding peptide sequence) [SEQ ID NO: 385] 4.8

Give me measured Protein ELISA, please, for this sequence: AGVTNCNLSTMFCFLHGT (Synthetically generated cMet-binding peptide sequence) [SEQ ID NO: 026] 3.8

Give me measured Protein ELISA, please, for this sequence: AQFPLEFDVPNFSYHWLVSFNP (Synthetically generated cMet-binding peptide sequence) [SEQ ID NO: 460] 5.6

Give me measured Protein ELISA, please, for this sequence: AQWNQWDEFMWFLNPPPIGLMW (Synthetically generated cMet-binding peptide sequence) [SEQ ID NO: 480] 3.3

Give me measured Protein ELISA, please, for this sequence: AGETTCLGWPTFVCVDYGT (Synthetically generated cMet-binding peptide sequence) [SEQ ID NO: 063] 5.3

Give me measured Protein ELISA, please, for this sequence: AGWFECEFGFWGCNWLGT (Synthetically generated cMet-binding peptide sequence) [SEQ ID NO: 018] 3.9

Give me measured Protein ELISA, please, for this sequence: GSMLGCLFEHQNKYDCYVLAP (Synthetically generated cMet-binding peptide sequence) [SEQ ID NO: 379] 3.2

Give me measured Protein ELISA, please, for this sequence: AQAEWVITSEEFYWKMADFGPP (Synthetically generated cMet-binding peptide sequence) [SEQ ID NO: 478] 3.4

Give me measured Protein ELISA, please, for this sequence: AGETKCSGPPYFYCWMEGT (Synthetically generated cMet-binding peptide sequence) [SEQ ID NO: 093] 16.3

Give me measured Protein ELISA, please, for this sequence: AGYFECKGPPTFECWLSGT (Synthetically generated cMet-binding peptide sequence) [SEQ ID NO: 060] 8.1

Give me measured Protein ELISA, please, for this sequence: AGNYWCSGPPSFICHAVGT (Synthetically generated cMet-binding peptide sequence) [SEQ ID NO: 091] 8.9

Give me measured Protein ELISA, please, for this sequence: AGMTLCAGPPTFECYEVGT (Synthetically generated cMet-binding peptide sequence) [SEQ ID NO: 092] 12.3

Give me measured Protein ELISA, please, for this sequence: AQHGYLSPLKQYQMSHVEFWTY (Synthetically generated cMet-binding peptide sequence) [SEQ ID NO: 476] 3.5

Give me measured Protein ELISA, please, for this sequence: GDPWWCFEKDSFIPFACWHHDP (Synthetically generated cMet-binding peptide sequence) [SEQ ID NO: 396] 7.4

Give me measured Protein ELISA, please, for this sequence: GSLYRCLGEASPTPPCAYEAP (Synthetically generated cMet-binding peptide sequence) [SEQ ID NO: 380] 4.0
